Give Total Cell Count for every item shown.
Test system: Fibroblast
Test: Multiplex assay against human fibroblast
Type: toxicity, cell-based
Settings: 48 h, 10 µM, compound concentration 10 uM, replicate 2
One number for each entry.

Example entries begin here.
>>> value_reported("Cl.Clc1ccc2nsnc2c1NC1=NCCN1 [TIZANIDINE HYDROCHLORIDE]")
141
>>> value_reported("O=C(NCCO)c1cccc(-c2cc(Nc3ccc(OC(F)(F)F)cc3)ncn2)c1")
198
>>> value_reported("Cc1ccc(/C(=C\\CN2CCCC2)c2ccccn2)cc1")
140
>>> value_reported("O=S(=O)(c1ccccc1)c1cnc2c(N3CCNCC3)cccc2c1 [INTEPIRDINE]")
125
>>> value_reported("CN1CCN(c2nc3cc(C(F)(F)F)ccc3n3cccc23)CC1.O=C(O)/C=C\\C(=O)O.O=C(O)/C=C\\C(=O)O")
118

// for each compound below, give its Total Cell Count
1. COc1ccc2c(c1)C(C(=O)N(Cc1ccc(N(C)C)cc1)c1ccc(C(C)C)cc1)CCC2.Cl (stereo not drawn)
2. Cc1ccc(F)cc1C(=O)Nc1ccc(C(=O)N2Cc3cccn3Cc3ccccc32)c(Cl)c1
3. Cc1nc2ccc(Oc3ccc(F)cc3)cc2c(=O)n1C[C@H]1CCCN(C(C)C)C1.Cl

1. 174
2. 170
3. 201

###

Tested on: HEK-293T
Assay: Multiplex assay against HEK293T
Format: toxicity, cell-based
Conditions: human, 48 h, 10 µM, compound concentration 10 uM, replicate 1
Attribute measured: Population Mitotic Cells (%)
One number for each entry, in %.

Example entries begin here.
>>> value_reported("CSCC[C@H](NC=O)C(=O)N[C@@H](CC(C)C)C(=O)N[C@@H](Cc1ccccc1)C(=O)O")
71
>>> value_reported("C[C@H]1[C@H]2CC[C@H]3[C@@H]4CC=C5C[C@@H](N(C)C)CC[C@]5(C)[C@H]4CC[C@]23CN1C")
72
>>> value_reported("CC(=O)NCCc1c(Cc2ccccc2)[nH]c2ccccc12")
72
>>> value_reported("CCCC(CCC)C(=O)O")
78
>>> value_reported("Cl.Clc1ccc2nsnc2c1NC1=NCCN1 [TIZANIDINE HYDROCHLORIDE]")
75

// for each molecule below, give its Population Mitotic Cells (%)
1. O=C(NCC(=O)N1CC[C@H](N[C@H]2CC[C@@](O)(c3ccc(-c4ncccn4)cn3)CC2)C1)c1cccc(C(F)(F)F)c1
2. O=C(NCCO)c1cccc(-c2cc(Nc3ccc(OC(F)(F)F)cc3)ncn2)c1
3. CC1(COc2ccc3c(c2)ncn3-c2ccc3cccc(N4CCC(N)CC4)c3n2)COC1
4. O=S(=O)(c1ccccc1)c1cnc2c(N3CCNCC3)cccc2c1 [INTEPIRDINE]
5. CN1CCN2c3ncccc3Cc3ccccc3C2C1 (configuration not stated)
6. N[C@@]1(C(=O)O)CO[C@H]2[C@H](C(=O)O)[C@H]21

68
58
13
59
68
75

###

Give Population Healthy Nuclei (%) for every item shown.
Test system: HEK-293T
Assay: Multiplex assay against HEK293T
Type: toxicity, cell-based
Conditions: human, 24 h, 1 µM, compound concentration 1 uM, replicate 2
Quick note: unit goes after the number.

Example entries begin here.
>>> value_reported("CCCn1c(=O)c2[nH]c(C3CCCC3)nc2n(CCC)c1=O")
"82%"
>>> value_reported("COc1ccccc1N1CCN(CCCCNC(=O)c2ccc3ccccc3c2)CC1.Cl")
"82%"
>>> value_reported("Cc1ccc(C(C)(O)c2nc3ccccc3s2)c(C)c1 (stereo unspecified)")
"85%"
>>> value_reported("C[C@@H]1C[C@H]2[C@@H]3CCC4=CC(=O)C=C[C@]4(C)[C@@]3(F)[C@@H](O)C[C@]2(C)[C@@]1(O)C(=O)CO")
"79%"
>>> value_reported("CCOc1c2c(c(OCC)c3ncccc13)CN(c1ccc(CS(=O)(=O)NC(=O)Cc3ccccc3OC)cc1C)C2=O")
"85%"
>>> value_reported("C[C@H](NC(=O)c1c(C(F)F)nn(C)c1Oc1cccc(C(F)(F)F)c1)c1ccc(C(=O)O)cc1")
"83%"

// for each molecule below, give its Population Healthy Nuclei (%)
1. CSc1ccccc1N1CCN(CCCCCC(=O)NC2CCCc3ccccc32)CC1.Cl (stereo unspecified)
2. CC1(COc2ccc3c(c2)ncn3-c2ccc3cccc(N4CCC(N)CC4)c3n2)COC1
3. Cc1ccccc1C(=O)Nc1ccc(C(=O)N2CCCC(N(C)C)c3ccccc32)cc1.Cl (stereo unspecified)
4. CN1CCN(c2nc3cc(C(F)(F)F)ccc3n3cccc23)CC1.O=C(O)/C=C\C(=O)O.O=C(O)/C=C\C(=O)O
5. COc1cc(C(=O)N(CCCc2ccccc2)Cc2ccc(CC(=O)O)cc2)cc(OC)c1C
6. CCNC1(C(N)=O)CCN(c2ncnc3c2nc(-c2ccccc2Cl)n3-c2ccc(Cl)cc2)CC1

1: 75%; 2: 73%; 3: 83%; 4: 83%; 5: 82%; 6: 75%

// for each molecule below, give its Population Healthy Nuclei (%)
1. O=C(O)Cc1ccccc1Nc1c(Cl)cccc1Cl
2. COc1cc(NC(=O)CCN2CCC(OC(=O)Nc3ccccc3-c3ccccc3)CC2)c(Cl)cc1CNC[C@H](O)c1ccc(O)c2[nH]c(=O)ccc12
3. O=C(NCCO)c1cccc(-c2cc(Nc3ccc(OC(F)(F)F)cc3)ncn2)c1
4. O=C1COc2nccc(-c3ccccc3F)c2CN1Cc1cc(C(F)(F)F)cc(C(F)(F)F)c1

78%
82%
79%
87%

###

Give Population Fragmented Nuclei (%) for every item shown.
Test system: HEK-293T
Test: Multiplex assay against HEK293T
Assay type: toxicity, cell-based
Details: human, 48 h, 1 µM, compound concentration 1 uM, replicate 2
Numbers only, in %.

Example entries begin here.
>>> value_reported("O=C(O)c1cc2ccccc2c(Cc2c(O)c(C(=O)O)cc3ccccc23)c1O [PAMOIC ACID]")
8
>>> value_reported("O=C1COc2nccc(-c3ccccc3F)c2CN1Cc1cc(C(F)(F)F)cc(C(F)(F)F)c1")
9
>>> value_reported("CNC[C@H](O)c1ccc(O)c(O)c1 [EPINEPHRINE]")
12
>>> value_reported("c1cc(OCCCN2CCCCC2)ccc1CN1CCCCC1 [JNJ-5207852]")
11
>>> value_reported("Cc1ccc(/C(=C\\CN2CCCC2)c2ccccn2)cc1 [TRIPROLIDINE]")
10

// for each compound below, give its Population Fragmented Nuclei (%)
1. COc1cc(C(=O)N(CCCc2ccccc2)Cc2ccc(CC(=O)O)cc2)cc(OC)c1C
2. C[C@H]1[C@H]2CC[C@H]3[C@@H]4CC=C5C[C@@H](N(C)C)CC[C@]5(C)[C@H]4CC[C@]23CN1C [CONESSINE]
3. CN1CCN2c3ncccc3Cc3ccccc3C2C1 (stereo not given) [MIRTAZAPINE]

[9, 10, 13]

// for each compound below, give its Population Fragmented Nuclei (%)
1. Cl.Clc1ccc2nsnc2c1NC1=NCCN1 [TIZANIDINE HYDROCHLORIDE]
2. Cc1ccc(C(C)(O)c2nc3ccccc3s2)c(C)c1 (stereo not given)

14
13

###

Test system: U2OS
Test: Multiplex assay against U2OS
Type: toxicity, cell-based
Settings: human, 48 h, 1 µM, compound concentration 1 uM, replicate 2
Give Population Mitotic Cells (%) for every item shown.
Answers are plain numbers, in %.

// for each compound below, give its Population Mitotic Cells (%)
1. Cc1nc2ccc(Oc3ccc(F)cc3)cc2c(=O)n1C[C@H]1CCCN(C(C)C)C1.Cl
2. CC(=O)NCCc1c(Cc2ccccc2)[nH]c2ccccc12 [LUZINDOLE]
3. Cl.Clc1ccc2nsnc2c1NC1=NCCN1 [TIZANIDINE HYDROCHLORIDE]

1. 6
2. 20
3. 9

// for each compound below, give its Population Mitotic Cells (%)
1. N#Cc1c(N)nc(SCc2csc(-c3ccc(Cl)cc3)n2)c(C#N)c1-c1ccc(OCCO)cc1 [CAPADENOSON]
2. CCOc1c2c(c(OCC)c3ncccc13)CN(c1ccc(CS(=O)(=O)NC(=O)Cc3ccccc3OC)cc1C)C2=O
3. Cc1ccc(C(C)(O)c2nc3ccccc3s2)c(C)c1 (centres undefined)
4. CSc1ccccc1N1CCN(CCCCCC(=O)NC2CCCc3ccccc32)CC1.Cl (centres undefined)

1. 15
2. 0
3. 5
4. 4

// for each compound below, give its Population Mitotic Cells (%)
1. O=C(O)c1cc2ccccc2c(Cc2c(O)c(C(=O)O)cc3ccccc23)c1O [PAMOIC ACID]
2. CCNC1(C(N)=O)CCN(c2ncnc3c2nc(-c2ccccc2Cl)n3-c2ccc(Cl)cc2)CC1 [OTENABANT]

1: 10; 2: 47

###

Tested on: HEK-293T
Experiment: Multiplex assay against HEK293T
Format: toxicity, cell-based
Conditions: human, 48 h, 1 µM, compound concentration 1 uM, replicate 1
Attribute measured: Population Hoechst High Intensity Objects (%)

>>> value_reported("C[C@@H]1C[C@H]2[C@@H]3CCC4=CC(=O)C=C[C@]4(C)[C@@]3(F)[C@@H](O)C[C@]2(C)[C@@]1(O)C(=O)CO [DEXAMETHASONE]")
"1%"

// for each compound below, give its Population Hoechst High Intensity Objects (%)
1. COc1ccccc1N1CCN(CCCCNC(=O)c2ccc3ccccc3c2)CC1.Cl
2. O=C(NCC(=O)N1CC[C@H](N[C@H]2CC[C@@](O)(c3ccc(-c4ncccn4)cn3)CC2)C1)c1cccc(C(F)(F)F)c1 [PF-4136309]
3. Cc1ccc(F)cc1C(=O)Nc1ccc(C(=O)N2Cc3cccn3Cc3ccccc32)c(Cl)c1 [LIXIVAPTAN]
4. O=C1COc2nccc(-c3ccccc3F)c2CN1Cc1cc(C(F)(F)F)cc(C(F)(F)F)c1
5. CC(C)(C)c1ccc(S(=O)(=O)Nc2ccc(Cl)cc2C(=O)c2cc[n+]([O-])cc2)cc1 [VERCIRNON]

3%
0%
2%
2%
2%

// for each compound below, give its Population Hoechst High Intensity Objects (%)
1. CNC[C@H](O)c1ccc(O)c(O)c1 [EPINEPHRINE]
2. Cc1nc2ccc(Oc3ccc(F)cc3)cc2c(=O)n1C[C@H]1CCCN(C(C)C)C1.Cl
3. CCOc1c2c(c(OCC)c3ncccc13)CN(c1ccc(CS(=O)(=O)NC(=O)Cc3ccccc3OC)cc1C)C2=O
4. N#Cc1c(N)nc(SCc2csc(-c3ccc(Cl)cc3)n2)c(C#N)c1-c1ccc(OCCO)cc1 [CAPADENOSON]
5. COc1c(C)cc(NC(=O)c2nn(Cc3ccc(F)cc3)c3c2CN(C(=O)c2ccc[nH]2)C[C@]3(C)C(N)=O)cc1C
6. C[C@H]1[C@H]2CC[C@H]3[C@@H]4CC=C5C[C@@H](N(C)C)CC[C@]5(C)[C@H]4CC[C@]23CN1C [CONESSINE]

1. 3%
2. 1%
3. 3%
4. 4%
5. 2%
6. 2%

// for each compound below, give its Population Hoechst High Intensity Objects (%)
1. CCCn1c(=O)c2[nH]c(C3CCCC3)nc2n(CCC)c1=O
2. COc1cc(NC(=O)CCN2CCC(OC(=O)Nc3ccccc3-c3ccccc3)CC2)c(Cl)cc1CNC[C@H](O)c1ccc(O)c2[nH]c(=O)ccc12 [BATEFENTEROL]
3. O=C(NCCO)c1cccc(-c2cc(Nc3ccc(OC(F)(F)F)cc3)ncn2)c1
4. CCNC1(C(N)=O)CCN(c2ncnc3c2nc(-c2ccccc2Cl)n3-c2ccc(Cl)cc2)CC1 [OTENABANT]
5. Cc1ccc(C(C)(O)c2nc3ccccc3s2)c(C)c1 (configuration not stated)

1. 1%
2. 3%
3. 3%
4. 4%
5. 2%
